- Tested on: E31 (patient-derived glioblastoma stem cells of proneural subtype);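 also: nuclei counted by high-content imaging of Hoechst-stained cells in laminin-coated 384-well plates, relative to 0.1% DMSO vehicle wells, with staurosporine as cell-death control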
- protocol-text: surviving fraction (nuclei count normalised to DMSO); higher = more cells surviving (less toxic)
- measurement-setup: 3000 nM; exposure time: 72 h
Where a name gives a salt, the structure may show the parent alone.
// n strictly below 0.5 in surviving fraction; y otherwise

Does N=C(N)NCc1cccc(I)c1 [Iobenguane sulfate] have a reported surviving fraction of at least 0.5? y

Does CCN(CC)CCCC(C)Nc1c2ccc(Cl)cc2nc2ccc(OC)cc12 (configuration not stated) [Quinacrine dihydrochloride hydrate] have a reported surviving fraction of at least 0.5? y

Does CC[C@]1(O)C[C@@H]2CN(CCc3c([nH]c4ccccc34)[C@@](C(=O)OC)(c3cc4c(cc3OC)N(C)[C@H]3[C@@](O)(C(=O)OC)[C@H](OC(C)=O)[C@]5(CC)C=CCN6CC[C@]43[C@@H]65)C2)C1 [Vinblastine sulfate] have a reported surviving fraction of at least 0.5? n

Does Clc1ccc(COC(Cn2ccnc2)c2ccc(Cl)cc2Cl)cc1 (configuration not stated) [Econazole nitrate] have a reported surviving fraction of at least 0.5? y

Does C[C@@H](O[C@H]1OCCN(Cc2n[nH]c(=O)[nH]2)[C@H]1c1ccc(F)cc1)c1cc(C(F)(F)F)cc(C(F)(F)F)c1 [Aprepitant] have a reported surviving fraction of at least 0.5? y

Does Cc1c2ccncc2c(C)c2c1[nH]c1ccccc12 [Ellipticine] have a reported surviving fraction of at least 0.5? n

Now look at this one.
Does CC(C)C[C@H]1C(=O)N2CCC[C@H]2[C@]2(O)O[C@](NC(=O)[C@@H]3C=C4c5cccc6[nH]c(Br)c(c56)C[C@H]4N(C)C3)(C(C)C)C(=O)N12 [Bromocryptine mesylate] have a reported surviving fraction of at least 0.5? y

meta.source: the supplement of paper PMC13207355
